Test system: Gardnerella vaginalis
test name: MIC against Gardnerella vaginalis (ATCC 14018 and 11 clinical isolates), standard two-fold dilution
Format: cell-based
condition info: MIC 8 mcg/ml; 12 strains tested; anaerobic, 48 hours at 37° C.
value type: NUMBER OF STRAINS WITH MIC OF 8 (strains)
// note: answer is a bare numeric in strains

Consider the following illustrative entries.
> print(dat)
                                   molecule  value.observed
1  Clc1ccc(COC(Cn2ccnc2)c2ccc(Cl)cc2Cl)c(Cl)c1 (stereo not shown) [Miconazole]               7
2  COC(=O)c1cc2cc3c(c(O)c2c(=O)o1)OC1(Cc2c(O)c4c(c(O)c2O1)C(=O)C(OC)=CC4=O)CC3O (stereo not shown) [Purpuromycin]              12
3  Clc1ccccc1C(c1ccccc1)(c1ccccc1)n1ccnc1 [Clotrimazole]               2

Now for a further molecule.
Return reported NUMBER OF STRAINS WITH MIC OF 8; argument: Cc1ncc([N+](=O)[O-])n1CCO [Metronidazole]
3
